Numbers sourced from patent US11185588B2.

assay: physchem; type: physicochemical; details: 25 °C, pH 7, water
readout.type: solubility (mg/mL)
Dear colleague, please return just the value in mg/mL, with no unit written.

Prompt: Consider the compound CC(C)[C@H](N)C(=O)OCC(CO)OCn1cnc2c(=O)[nH]c(N)nc21.Cl (stereo partly shown) [valganciclovir hydrochloride] and give its recorded solubility.
Response: 70

----------
assay: physchem; format: physicochemical; conditions: aqueous buffer
readout.type: solubility

Prompt: State its solubility: CC(C)[C@H](N)C(=O)OCC(CO)OCn1cnc2c(=O)[nH]c(N)nc21.Cl (stereo partly shown) [valganciclovir hydrochloride]
Response: > 200 mg/mL

----------
assay: pKa; assay type: physicochemical
readout.type: pKa
Lab note: write the figure by itself, no unit.

Prompt: Tell us which pKa value is on record for CC(C)[C@H](N)C(=O)OCC(CO)OCn1cnc2c(=O)[nH]c(N)nc21.Cl (stereo partly shown) [valganciclovir hydrochloride]
Response: 7.6
